Origin of measurements: the supplement of paper PMC10567573

B1: VTI1B (parent)
chain: ANETLAEMEEELRYAPLSFRNPMM

variants of: B1; experiment: protein stability index of a GFP-peptide fusion (GPS, HEK-293T) (PSI 1-6); higher = more stable; conditions: c terminus: a fixed tail appended;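 also: lentivirally expressed fusions sorted by FACS into six bins by GFP to DsRed ratio, PSI derived from sequencing read proportions per bin multiplied by bin number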
# label = bin(measured protein stability index), where bins are low bracket (below 2), middle bracket (2 to below 3), high bracket (3 or more)

{"columns": ["variant", "classification"],
 "data": [
  ["M23Y", "middle bracket"],
  ["L5V", "middle bracket"],
  ["M8W", "low bracket"]
]}

Switching to the query record.
Prompt line: Pick a category. Item: `A1H`
Response line: middle bracket
